Test system: cell surface levels of the A2A receptor, HEK293 cells stably expressing FS2-N-A2AR
Assay: Cell surface levels of the A2A receptor after 24 h HSP90 inhibitor treatment (acid-strip-sensitive [3H]ZM241385 binding)
Type: cell-based, human
Conditions: 24 h incubation; acid-strip-sensitive [3H]ZM241385 binding; read-out: EC50 for increase in cell surface levels of the A2A receptor
pEC50: −log10 of the molar value.
Test readout: pEC50

- Molecule: "CO[C@H]1/C=C\\C=C(/C)C(=O)NC2=CC(=O)C(NCCN(C)C)=C(C[C@@H](C)C[C@H](OC)[C@H](O)[C@@H](C)/C=C(\\C)[C@@H]1OC(N)=O)C2=O [17-DMAG]"
  Test readout: "pEC50"
  Test value: "~6.00"

Source of measurements: paper PMC3789979
